Assay: viability loss in pontine glioma line – cell-based, SU-DIPG-XVII, MIPE5.0, CellTiter-Glo, qHTS, dose response (AID 1347060);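 as to AC50: cells exposed to compound for 48 hours before viability readout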
Details: CellTiter-Glo ATP luminescence
Records with an inconclusive call do not appear. Calls of active or inactive are those of the source. The limit is not given here; nearly all actives have AC50 up to about 26 µM.
Respond using exactly one of the listed classes: Y for active, N for inactive

>>> class("Cn1c(-c2ccccc2C(F)(F)F)nnc1C12CCC(c3noc(C4CC(F)(F)C4)n3)(CC1)CC2")
"N"

Input line: For CNC(=O)c1cccc2cc(Oc3ccnc4cc(OCC5(N)CC5)c(OC)cc34)ccc12 , which call appears in the assay record?
Output line: Y

Input line: For O=C(NC1CCOCC1)c1ccc(-c2cc(-c3cn[nH]c3-c3ccccn3)ccn2)cc1 , which call appears in the assay record?
Output line: N

Input line: For NC(=O)c1cc(F)cc2c1C(=O)N(C1CCN(C3CCC(F)(F)CC3)CC1)C2 , which call appears in the assay record?
Output line: N

Input line: For C[C@@H]1O[C@@H](O[C@@H]2\C=C/C=C\C=C/C=C\C[C@H](C)OC(=O)/C=C\[C@H]3O[C@@H]3C[C@H](O)C[C@]3(O)C[C@@H](O)[C@@H](C(=O)O)[C@H](C2)O3)[C@H](O)[C@H](N)[C@@H]1O , which call appears in the assay record?
Output line: N

Input line: For NS(=O)(=O)Oc1ccc2c3c(c(=O)oc2c1)CCCCC3 , which call appears in the assay record?
Output line: N

Input line: For CNc1ncc2cc(-c3cc(NC(=O)NCCC(C)(C)C)c(F)cc3C)c(C)nc2n1 , which call appears in the assay record?
Output line: N

Input line: For Cc1ncc(-c2ccnc(Nc3ccc(S(C)(=O)=O)cc3)n2)n1C(C)C , which call appears in the assay record?
Output line: Y
